measurement_target: CtermHisTag-mEGFR Triple Mutant - C797S, L858R, T790M (Homo sapiens, UniProt P00533, C797S/L858R/T790M)
Sequence (P00533 25-1210 T790M/C797S/L858R): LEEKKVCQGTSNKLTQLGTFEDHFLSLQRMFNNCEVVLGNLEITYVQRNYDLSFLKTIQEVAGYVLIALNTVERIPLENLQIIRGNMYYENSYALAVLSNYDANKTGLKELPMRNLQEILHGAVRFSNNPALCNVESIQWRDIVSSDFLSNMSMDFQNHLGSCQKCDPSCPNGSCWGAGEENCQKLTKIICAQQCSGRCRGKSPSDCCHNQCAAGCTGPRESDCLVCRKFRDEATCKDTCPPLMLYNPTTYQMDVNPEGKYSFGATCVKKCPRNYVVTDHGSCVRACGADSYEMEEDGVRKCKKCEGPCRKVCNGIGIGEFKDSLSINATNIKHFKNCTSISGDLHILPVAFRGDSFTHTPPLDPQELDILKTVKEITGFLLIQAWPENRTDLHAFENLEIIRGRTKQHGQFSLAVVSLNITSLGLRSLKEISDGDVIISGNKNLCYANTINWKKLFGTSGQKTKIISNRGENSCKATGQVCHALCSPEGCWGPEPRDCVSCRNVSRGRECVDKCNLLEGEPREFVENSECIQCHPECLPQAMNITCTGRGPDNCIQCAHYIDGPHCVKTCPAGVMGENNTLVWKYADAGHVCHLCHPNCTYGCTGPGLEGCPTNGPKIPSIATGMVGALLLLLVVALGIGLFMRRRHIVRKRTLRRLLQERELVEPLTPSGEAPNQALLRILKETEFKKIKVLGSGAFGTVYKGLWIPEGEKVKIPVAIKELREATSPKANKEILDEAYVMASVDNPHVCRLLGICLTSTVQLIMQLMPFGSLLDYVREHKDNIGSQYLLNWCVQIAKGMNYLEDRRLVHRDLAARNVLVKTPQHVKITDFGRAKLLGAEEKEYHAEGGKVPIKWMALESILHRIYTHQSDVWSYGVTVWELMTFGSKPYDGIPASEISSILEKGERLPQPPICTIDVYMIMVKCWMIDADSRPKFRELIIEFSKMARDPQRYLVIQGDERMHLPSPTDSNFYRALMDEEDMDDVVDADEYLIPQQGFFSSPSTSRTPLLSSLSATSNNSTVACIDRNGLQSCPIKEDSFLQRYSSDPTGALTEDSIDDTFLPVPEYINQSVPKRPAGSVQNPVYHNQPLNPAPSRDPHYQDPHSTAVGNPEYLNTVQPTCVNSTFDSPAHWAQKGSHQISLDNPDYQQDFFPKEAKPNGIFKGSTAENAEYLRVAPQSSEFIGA
method: TR-FRET probe displacement assay, EGFR triple mutant
details: T790M 1.25 nM, probe 100 nM, 30 mins room temperature
pIC50: −log10 of the molar value.
measured_property: pIC50

smiles_code: C#Cc1cc(N2C(=O)NC[C@@H]2C(C)C)nc2nc(Nc3ccc(N4CCN(C)CC4)cc3)ncc12
reported_value: > 7.70
//
smiles_code: C#Cc1cc(NC(=O)NCc2ccccn2)nc2nc(Nc3ccc(N4CCN(C)CC4)cc3)ncc12
reported_value: 7.00 to 7.70
//
smiles_code: C#Cc1cc(Nc2nccn2C)nc2nc(Nc3ccc(N4CCN(C)CC4)cc3)ncc12
reported_value: 7.00 to 7.70
//
smiles_code: C#Cc1cc(NC(=O)NC2CCCC2)nc2nc(Nc3ccc(N(C)C(=O)CN4CCC4)cc3)ncc12
reported_value: 6.00 to 7.00

Where these numbers come from: patent US20260176265A1
